System: Wolbachia pipientis
Assay: Anti-Wolbachia Cell-Based Screen
Type: functional
Design: scale not given: in the data most compounds retested in dose-response had high values
Conditions: 5 µM
The whole screen tested about 48,000 compounds, of which about 13,000 (27%) showed an effect of 50% or more. Some of the results follow.
quantityMeasured: Percent Effect (%)
Express your answer in %, writing the number without its unit.

**Query** Note Percent Effect for the compound shown: `O=C1NC[C@H]2CN(C3CCOCC3)CCN12`
**Result** -8.801

**Query** Note Percent Effect for the compound shown: NC(=O)C1CN(C(=O)Cc2cccnc2)CCN(C2CCOCC2)C1 (configuration not stated)
**Result** 108.4

**Query** Note Percent Effect for the compound shown: `Cc1cc(C)c(CNc2ncnc3c2cnn3C)c(=O)[nH]1`
**Result** -6.133

**Query** Note Percent Effect for the compound shown: `Cc1ncccc1OCC(=O)N1CCN[C@H]2CS(=O)(=O)C[C@H]21`
**Result** -3.722

**Query** Note Percent Effect for the compound shown: O=S1(=O)CCC(n2cc(C3=CCN(CCN4CCCCC4)CC3)cn2)C1 (configuration not stated)
**Result** 5.738

**Query** Note Percent Effect for the compound shown: `Cn1nc(-c2ccccc2)cc1[C@H]1CN2CC[C@H]1C[C@@H]2CNS(C)(=O)=O`
**Result** 1.19

**Query** Note Percent Effect for the compound shown: `Cn1cncc1CN1C[C@@H]2OCCN(c3ncccn3)[C@@H]2C1.O=C(O)C(F)(F)F`
**Result** -0.0713

**Query** Note Percent Effect for the compound shown: `CC(C)CNC(=O)N1CCOC2(CCNCC2)C1`
**Result** -1.344

**Query** Note Percent Effect for the compound shown: Fc1cccnc1N1CCC2(CNCCC2(F)F)C1 (configuration not stated)
**Result** 8.279

**Query** Note Percent Effect for the compound shown: CS(=O)(=O)NCc1cncc2c1CCN(CC1CCOC1)C2.Cl.Cl (configuration not stated)
**Result** -2.425

**Query** Note Percent Effect for the compound shown: `Cc1nc(N2C[C@H]3CC[C@@H](C2)N3)nc2cc(S(C)(=O)=O)ccc12`
**Result** 4.923

**Query** Note Percent Effect for the compound shown: CCC1CCCCN1CCc1ccncc1 (configuration not stated)
**Result** -22.38

**Query** Note Percent Effect for the compound shown: `O=C1[C@@H]2CCN(CC3CC3)C[C@@H]2OCCN1c1cccnc1`
**Result** -19.89

**Query** Note Percent Effect for the compound shown: `Cc1cccc(CN2C[C@@H]3OCCN(C)[C@@H]3C2)n1`
**Result** 7.406

**Query** Note Percent Effect for the compound shown: `CN(C)Cc1cncc2c1CCN(CC(=O)N(C)C)C2`
**Result** 91.67

**Query** Note Percent Effect for the compound shown: `Cc1cccc(CN2C[C@@H]3OCCN(c4cnccn4)[C@@H]3C2)n1.O=C(O)C(F)(F)F`
**Result** -8.161

**Query** Note Percent Effect for the compound shown: CN(CC1Cc2ccccc2CN1C)C(=O)Cc1cccs1 (configuration not stated)
**Result** 4.108

**Query** Note Percent Effect for the compound shown: c1ccc2c(c1)CCC21CN(CCc2ccncc2)CCO1 (configuration not stated)
**Result** -6.517

**Query** Note Percent Effect for the compound shown: `Cc1ccc(OCC(=O)N2CCN[C@H]3CS(=O)(=O)C[C@H]32)cn1`
**Result** -8.198

**Query** Note Percent Effect for the compound shown: `CN(C)C(=O)CN1C[C@@H]2CC[C@H](C1)N(C(=O)Cc1ccccc1Cl)C2`
**Result** -1.206

**Query** Note Percent Effect for the compound shown: CC(C(=O)N(C)C)N1CCCN(C(=O)Oc2ccccc2)CC1 (configuration not stated)
**Result** -7.894

**Query** Note Percent Effect for the compound shown: CC(C)(C)c1cn(C[C@H]2CC3CCN2C[C@@H]3C(=O)N2CCOCC2)nn1 (some centres not stated)
**Result** -7.534

**Query** Note Percent Effect for the compound shown: `CS(=O)(=O)Cc1nc(CN2CC=C(c3ccccc3)CC2)cs1`
**Result** 9.315

**Query** Note Percent Effect for the compound shown: O=C(Cc1cccnc1)N1CCC2(CC1)CCN(C1CCOC1)C2.O=C(O)C(F)(F)F.O=C(O)C(F)(F)F (configuration not stated)
**Result** -0.1396

**Query** Note Percent Effect for the compound shown: `Cc1cc(CC(=O)N2CCN(C)[C@@H]3CS(=O)(=O)C[C@@H]32)ccc1F`
**Result** -18.64

**Query** Note Percent Effect for the compound shown: CC(Cn1ccnc1)NCc1csc2c1CCCC2 (configuration not stated)
**Result** -4.512

**Query** Note Percent Effect for the compound shown: `c1ccc(CN2C[C@@H]3OCCN(c4cccnc4)[C@@H]3C2)nc1`
**Result** -16.65

**Query** Note Percent Effect for the compound shown: `CN(C)C(=O)CN1C[C@@H]2CC[C@H](C1)N(Cc1c(Cl)cncc1Cl)C2`
**Result** -12.98

**Query** Note Percent Effect for the compound shown: CCc1cc(CN(C)C(=O)CN2CC(c3ccccc3)CC2=O)on1 (configuration not stated)
**Result** -7.018

**Query** Note Percent Effect for the compound shown: `CC(C)c1cc(CN2CCN(c3cccnc3)CC2)n(C)n1`
**Result** 9.429

**Query** Note Percent Effect for the compound shown: `CC(C)N1CCO[C@H]2CN(C(=O)Cc3ccsc3)C[C@H]21.O=C(O)C(F)(F)F`
**Result** 16.26

**Query** Note Percent Effect for the compound shown: `CC(C)N(C)Cc1cncc2c1CCN(CC(=O)N(C)C)C2.Cl.Cl.Cl`
**Result** 105.8

**Query** Note Percent Effect for the compound shown: `COc1ccc(CN2C[C@H]3CN(c4cncnc4)C(=O)[C@H]3C2)cc1.O=C(O)C(F)(F)F`
**Result** -6.592

**Query** Note Percent Effect for the compound shown: `COCCN1CCO[C@H]2CN(Cc3cccc(C)n3)C[C@H]21.O=C(O)C(F)(F)F.O=C(O)C(F)(F)F`
**Result** 106.4

**Query** Note Percent Effect for the compound shown: `CCN1CCc2c(CNC(=O)c3nccn3C)cncc2C1.Cl.Cl.Cl`
**Result** 11.07

**Query** Note Percent Effect for the compound shown: `CCCN1C[C@H]2CC[C@@H]1CN(C(=O)Cn1c(C)cc(C)nc1=O)C2`
**Result** -4.771

**Query** Note Percent Effect for the compound shown: `C[C@@H]1C[C@H]2CN(Cc3nccs3)C[C@H]2O1.O=C(O)C(F)(F)F`
**Result** -5.34

**Query** Note Percent Effect for the compound shown: `Cc1noc(C)c1CN1CCOCC12CCN(c1nccs1)CC2.O=C(O)C(F)(F)F`
**Result** 98.18

**Query** Note Percent Effect for the compound shown: CCN(CC)C(=O)C1CCC2(CCNCC2)O1.Cl (configuration not stated)
**Result** -5.53

**Query** Note Percent Effect for the compound shown: `CCN1CCC2(CC1)CN(CCO)c1ccccc12`
**Result** -10.11

**Query** Note Percent Effect for the compound shown: `CO[C@H]1COCCN(Cc2c[nH]c3ccccc23)C1`
**Result** -3.317

**Query** Note Percent Effect for the compound shown: `O=C1N(Cc2cccnc2)C[C@H]2CN(C3CCOCC3)CCN12`
**Result** -6.635

---

Hi there, I'd appreciate the recorded Percent Effect for every entry that follows.
Test system: Wolbachia pipientis
Experiment: Anti-Wolbachia Cell-Based Screen
Format: functional
Set-up: scale not given: in the data most compounds retested in dose-response had high values
Conditions: 5 µM
Hit rate of the full screen: of about 48,000 compounds, about 13,000 (27%) showed an effect of 50% or more. Some of the results follow.
Express your answer in %, writing the number without its unit.

**Query** Note Percent Effect for the compound shown: O=C(O)C(F)(F)F.O=C(O)C(F)(F)F.O=C1N(c2ccsc2)CCC12CCCN(Cc1ccccn1)C2 (centres undefined)
**Result** 2.891

**Query** Note Percent Effect for the compound shown: COc1ccc(CNC(C)Cn2cccn2)cc1F (centres undefined)
**Result** 80.61

**Query** Note Percent Effect for the compound shown: O=C(O)C(F)(F)F.O=C(O)C(F)(F)F.c1ccc(N2CCC3(COCCN(Cc4cccs4)C3)C2)nc1 (centres undefined)
**Result** 103.3

**Query** Note Percent Effect for the compound shown: `CC1CCN(C[C@H]2CN3CC[C@H]2C[C@@H]3CNC(=O)c2ccco2)CC1`
**Result** -5.154

**Query** Note Percent Effect for the compound shown: `CCc1noc(CN2CCN(C(=O)Cc3ccc(F)cc3)CC2)n1`
**Result** -6.192

**Query** Note Percent Effect for the compound shown: Cc1nc(CN2CCOCC3(CCN(c4ncccn4)C3)C2)cs1.O=C(O)C(F)(F)F.O=C(O)C(F)(F)F (centres undefined)
**Result** -16.84

**Query** Note Percent Effect for the compound shown: `Cn1cc(CN2CCC[C@]3(C[C@@H](Oc4ccccn4)CO3)C2)cn1.O=C(O)C(F)(F)F.O=C(O)C(F)(F)F`
**Result** 98.39

**Query** Note Percent Effect for the compound shown: `CCn1ccnc1CN1CCCN(C(=O)Cc2ccc(F)cc2)CC1`
**Result** 115.9

**Query** Note Percent Effect for the compound shown: CC(Cn1cccn1)NCc1nc(-c2cccs2)no1 (centres undefined)
**Result** -0.9937

**Query** Note Percent Effect for the compound shown: `CC(C)N1CCC2(CC1)C(=O)N(CCN(C)C)c1ccccc12.O=C(O)C(F)(F)F.O=C(O)C(F)(F)F`
**Result** 103.6

**Query** Note Percent Effect for the compound shown: `O=C(NC[C@H]1C[C@@H]2CCN1C[C@@H]2CN1CCCC1)c1ccco1`
**Result** 7.038

**Query** Note Percent Effect for the compound shown: `CCN1C(=O)C2(CCN(CCN(C)C)CC2)c2ccccc21.O=C(O)C(F)(F)F.O=C(O)C(F)(F)F`
**Result** 97.23

**Query** Note Percent Effect for the compound shown: `CC(C)N1CCC2(CC1)C(=O)N(c1cccnc1)c1c(F)cccc12.Cl`
**Result** -0.101

**Query** Note Percent Effect for the compound shown: `CN1C(=O)C2(CCN(Cc3nccn3C)CC2)c2ccccc21.O=C(O)C(F)(F)F`
**Result** -27.57

**Query** Note Percent Effect for the compound shown: `Cc1cc(CN2CC[C@]3(C[C@@H](OCC(=O)N(C)C)CO3)C2)no1.O=C(O)C(F)(F)F`
**Result** 25.8

**Query** Note Percent Effect for the compound shown: O=C(O)C(F)(F)F.O=C(O)C(F)(F)F.O=C(O)C(F)(F)F.c1ccc(CN2CCCC3(CCN(Cc4cccs4)C3)C2)nc1 (centres undefined)
**Result** 118.7

**Query** Note Percent Effect for the compound shown: `O=C(Cc1ccccc1)N1CCN(Cc2noc(C3CC3)n2)CC1`
**Result** 0.1776

**Query** Note Percent Effect for the compound shown: O=C(O)C(F)(F)F.c1cnc(N2CCOCC3(CCCN(Cc4cc[nH]n4)C3)C2)nc1 (centres undefined)
**Result** -14.28

**Query** Note Percent Effect for the compound shown: N#Cc1cccnc1NCCNC(=O)N1CCN2CCCCC2C1 (centres undefined)
**Result** -6.324
